Each entry below carries its reported % INHIB (inhibition of human LIM domain kinase 1 mRNA levels).
Test system: human LIM domain kinase 1 mRNA
Assay: Antisense inhibition of human LIM domain kinase 1 mRNA levels, quantitative real-time PCR, A549 cells (screen)
Assay type: cell-based
Conditions: quantitative real-time PCR, averages from two experiments, screening concentration not given (50 nM to 300 nM used herein)
Strand notation (5' to 3'): a small letter for the sugar, then the base; units joined by * are phosphorothioate-linked, units joined directly phosphodiester-linked; [ ] holds rarer units or linkages, { } end groups; capitals alone tell only the bases. e = 2'-O-(2-methoxyethyl) (MOE); [5mC] = 5-methylcytosine; d = 2'-deoxy (DNA)
Dear colleague, please return just the value in %, with no unit written.

Examples from the recorded data:
206197 (antisense eG*e[5mC]*eA*eT*e[5mC]*dG*d[5mC]*dA*dT*dG*dA*d[5mC]*d[5mC]*dT*dT*e[5mC]*eA*e[5mC]*e[5mC]*eT) [compound 206197] ... 71
206211 (antisense eT*e[5mC]*eT*eG*e[5mC]*d[5mC]*d[5mC]*dT*dG*dA*dT*dG*dT*dG*d[5mC]*eG*e[5mC]*e[5mC]*e[5mC]*eT) [compound 206211] ... 59
206161 (eA*eA*e[5mC]*e[5mC]*eT*d[5mC]*dA*dT*dG*d[5mC]*dA*d[5mC]*dT*d[5mC]*dG*eA*e[5mC]*eG*eG*eG; antisense) [compound 206161] ... 82

Exercise: Data request, read-out % INHIB (inhibition of human LIM domain kinase 1 mRNA levels), for 206169 (e[5mC]*eT*eT*e[5mC]*e[5mC]*dT*d[5mC]*dT*d[5mC]*d[5mC]*d[5mC]*dA*dT*dA*d[5mC]*eG*eT*eT*e[5mC]*eT; antisense) [compound 206169]
Solution: 67

Exercise: Returns the measured % INHIB (inhibition of human LIM domain kinase 1 mRNA levels) for the input substance. Input: 206179 (antisense eG*e[5mC]*eA*eG*eT*dG*d[5mC]*d[5mC]*d[5mC]*dG*d[5mC]*dA*dG*dT*dA*e[5mC]*eA*eG*e[5mC]*eT) [compound 206179]
Solution: 75

Exercise: Look at this substance and give its reported % INHIB (inhibition of human LIM domain kinase 1 mRNA levels). 206207 (antisense eG*eT*eG*eG*e[5mC]*d[5mC]*d[5mC]*dT*dG*dG*d[5mC]*dT*d[5mC]*dA*dG*eT*e[5mC]*eG*eG*eG) [compound 206207]
Solution: 80

Sourced from patent US20040014047A1
